Data export: C. felis Mortality (%) 24 h values recorded with Ctenocephalides felis.
measurement-label: C. felis Mortality (%) 24 h

1) CCCN(N=C(C)c1cc(Cl)ccc1NS(=O)(=O)C(F)(F)F)c1ccc(Cl)c(Cl)c1; 100
2) CCCN(N=C(C)c1cc(Cl)ccc1NS(=O)(=O)C(F)(F)F)c1ccccc1; 100
3) CC(=NN1CCCC1)c1cc(Cl)ccc1NS(=O)(=O)C(F)(F)F; 100
4) CCCN(N=C(C)c1cc(Cl)ccc1NS(=O)(=O)C(F)(F)F)c1cc(Cl)cc(Cl)c1; 98
5) CC(=NN(C)c1ccccc1F)c1cc(Cl)ccc1NS(=O)(=O)C(F)(F)F; 100
6) CC(=NN(c1cccc(F)c1)C(C)C)c1cc(Cl)ccc1NS(=O)(=O)C(F)(F)F; 100
7) O=S(=O)(Nc1ccc(Cl)cc1-c1ccnn1-c1ccc(Cl)cc1)C(F)(F)F; 64
8) C/C(=N\N(C)C1CCCCC1)c1cc(Cl)ccc1NS(=O)(=O)C(F)(F)F; 100
9) CC(=NN(c1ccccc1Cl)C(C)C)c1cc(Cl)ccc1NS(=O)(=O)C(F)(F)F; 99
10) CC(=NN(C)C(=O)c1ccc(Cl)cc1)c1cc(Cl)ccc1NS(=O)(=O)C(F)(F)F; 100
11) CC(=NN(C)c1ccc(Br)cc1)c1cc(Cl)ccc1NS(=O)(=O)C(F)(F)F; 100
12) CC(=NN(c1cccc(Cl)c1)C(C)C)c1cc(Cl)ccc1NS(=O)(=O)C(F)(F)F; 100
13) CCN(N=C(C)c1cc(Cl)ccc1NS(=O)(=O)C(F)(F)F)C1CCCC1; 59
14) CCC(=NN(Cc1ccccc1)c1ccccc1)c1cc(Cl)ccc1NS(=O)(=O)C(F)(F)F; 100
15) CCCN(N=C(C)c1cc(Cl)ccc1NS(=O)(=O)C(F)(F)F)c1cccc(F)c1; 100

---

- Tested on: Ctenocephalides felis
- experiment: Ctenocephalides felis adulticide assay: C. felis dose response (LC50)
measurement-label: C. felis LC50 (ppm)

1) CCOC(=O)N(CC)N=C(C)c1cc(Cl)ccc1NS(=O)(=O)C(F)(F)F [Compound 125]; 3.62
2) CC(=NN(C)c1ccc(Br)cc1)c1cc(Cl)ccc1NS(=O)(=O)C(F)(F)F [Compound 63]; 2.4
3) CC(=NN1CCCC1)c1cc(Cl)ccc1NS(=O)(=O)C(F)(F)F [Compound 116]; 2.66
4) CCOC(=O)N(CC)N=C(CC)c1cc(Cl)ccc1NS(=O)(=O)C(F)(F)F [Compound 127]; 1.22
5) CC(=O)N(CCC#N)/N=C(\C)c1cc(Cl)ccc1NS(=O)(=O)C(F)(F)F [Compound 221]; 2.2
6) CCC(=NN(C)C(=O)c1ccc(Cl)cc1Cl)c1cc(Cl)ccc1NS(=O)(=O)C(F)(F)F [Compound 82]; 2.4
7) CCC(=NN1CCCCC1)c1cc(Cl)ccc1NS(=O)(=O)C(F)(F)F [Compound 130]; 2.36
8) CCN(N=C(C)c1cc(Cl)ccc1NS(=O)(=O)C(F)(F)F)C(=O)OC [Compound 139]; 5.14

---

- System: Ctenocephalides felis
- measurement-conditions: 24 h; data from laboratory 1
Classify as follows. Reported C. felis Mortality (%) 24 h greater than or equal to 30%: 1 (yes). Reported C. felis Mortality (%) 24 h below: 0 (no).

1) CC(=NNc1ccc(Cl)cc1)c1ccc(C(F)(F)F)cc1NS(=O)(=O)C(F)(F)F; 0 (no)
2) C=CCN(N=C(C)c1cc(Cl)ccc1N(CC=C)S(=O)(=O)C(F)(F)F)c1ccc(Cl)cc1; 0 (no)
3) CC(=NNC(=O)c1ccccc1Cl)c1cc(Cl)ccc1NS(=O)(=O)C(F)(F)F; 0 (no)
4) O=S(=O)(Nc1ccc(Cl)cc1C1=NN(c2ccccc2)CC1)C(F)(F)F; 0 (no)
5) CC(=NN1CCCCC1)c1cc(Cl)ccc1N(C)S(=O)(=O)C(F)(F)F; 0 (no)
6) CCC(=NNC(=O)OC)c1cc(Cl)ccc1NS(=O)(=O)C(F)(F)F; 0 (no)
7) CC(=NN1CCN(C)CC1)c1cc(Cl)ccc1NS(=O)(=O)C(F)(F)F; 1 (yes)
8) O=S(=O)(Nc1ccc(Cl)cc1C(=NNc1ccc(Cl)cc1)c1ccccc1)C(F)(F)F; 1 (yes)
9) CC(C)=CCN(c1ccc(Cl)cc1C(C)=NN(C)c1ccccc1)S(=O)(=O)C(F)(F)F; 0 (no)
10) O=S(=O)(Nc1ccc(Cl)cc1C1=NN(c2ccc(Cl)cc2)CC1)C(F)(F)F; 1 (yes)
11) CC(=NN(C)c1ccccc1)c1cc(NS(=O)(=O)C(F)(F)F)ccc1Cl; 1 (yes)
12) CC(=NN1CCCCC1)c1cccc(NS(=O)(=O)C(F)(F)F)c1; 0 (no)
13) O=S(=O)(Nc1ccc(Cl)cc1C1=NN(c2cccc(F)c2)CC1)C(F)(F)F; 0 (no)
14) CCOC(=O)NN=C(C)c1cc(Cl)ccc1NS(=O)(=O)C(F)(F)F; 0 (no)
15) CC(=Nn1c(C)n[nH]c1=O)c1cc(Cl)ccc1NS(=O)(=O)C(F)(F)F; 0 (no)
16) CC(=NN(c1ccccc1F)C(C)C)c1cc(Cl)ccc1NS(=O)(=O)C(F)(F)F; 1 (yes)
17) CC(=NNc1ccc(F)cc1)c1ccccc1NS(=O)(=O)C(F)(F)F; 0 (no)
18) CCC(=NN(CC)C1CCCCC1)c1cc(Cl)ccc1NS(=O)(=O)C(F)(F)F; 1 (yes)
19) C/C(=N\NC(=O)Nc1ccc(OC(F)(F)F)cc1)c1cc(Cl)ccc1NS(=O)(=O)C(F)(F)F; 0 (no)
20) CC(=NN1CCCCC1)c1cc2c(cc1NS(=O)(=O)C(F)(F)F)OCO2; 0 (no)
21) CC(=NN1CCCCC1)c1ccc(NS(=O)(=O)C(F)(F)F)cc1; 0 (no)
22) CCOCN(c1ccc(Cl)cc1C(C)=NN1CCCCC1)S(=O)(=O)C(F)(F)F; 1 (yes)
23) CCN(N=C(C)c1cc(Cl)ccc1NS(=O)(=O)C(F)(F)F)C1CCCCC1; 1 (yes)
24) C=CCN(N=C(C)c1cc(Cl)ccc1NS(=O)(=O)C(F)(F)F)c1ccc(Cl)cc1; 1 (yes)
25) CCC(=NNC(=O)c1ccc(Cl)cc1Cl)c1cc(Cl)ccc1NS(=O)(=O)C(F)(F)F; 1 (yes)
